Below, each entry is listed alongside its reported log10 IC50.
Molecular target: Vasoactive intestinal polypeptide receptor 1 (Rattus norvegicus, UniProt P30083)
Sequence (P30083 whole entry): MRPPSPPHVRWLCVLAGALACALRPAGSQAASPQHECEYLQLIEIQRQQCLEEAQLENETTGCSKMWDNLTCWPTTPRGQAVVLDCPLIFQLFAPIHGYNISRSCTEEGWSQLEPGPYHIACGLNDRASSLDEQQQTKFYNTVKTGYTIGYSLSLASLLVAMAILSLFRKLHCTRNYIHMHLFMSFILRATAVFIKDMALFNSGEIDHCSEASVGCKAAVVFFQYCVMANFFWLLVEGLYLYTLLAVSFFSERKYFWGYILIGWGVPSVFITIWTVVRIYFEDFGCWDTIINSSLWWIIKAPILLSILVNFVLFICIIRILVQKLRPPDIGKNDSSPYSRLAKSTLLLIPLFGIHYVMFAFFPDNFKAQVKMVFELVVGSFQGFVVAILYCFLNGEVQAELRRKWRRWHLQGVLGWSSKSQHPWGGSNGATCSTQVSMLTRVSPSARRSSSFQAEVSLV
Test: Antagonist activity at vasoactive intestinal peptide receptor 1 in rat RKE cells assessed as inhibition of VIP-induced intracellular cAMP accumulation incubated for 15 mins prior to VIP-stimulation measured after 30 mins by HTRF assay
test_readout: log10 IC50 (log10 of the value in nM)

1) CC(C)c1cc(C(C)(C)C)cc(-c2cccc(N(C)C)c2)c1CO	2.49
2) CSc1cccc(-c2cc(C(C)(C)C)cc(C(C)C)c2CO)c1	2.23
3) N#Cc1c(NC(=O)CCc2ccc(Cl)cc2)sc2c1CCCC2	3.08
4) CC(C)CC(=O)Nc1sc2c(c1C#N)CCCC2	3.28
5) N#Cc1c(NC(=O)C2CCCC2)sc2c1CCCC2	2.67
6) Cc1ccc(-c2cc(C(C)(C)C)cc(C(C)C)c2CO)cc1	2.48
7) Cc1ccc(CCC(=O)Nc2sc3c(c2C#N)CCCC3)cc1	2.68
8) N#Cc1c(NC(=O)Cc2ccccc2)sc2c1CCCC2	3.20
9) CC(C)c1cc(C(C)(C)C)cc(-c2ccc(Cl)cc2)c1CO	2.46
10) COc1ccc(-c2cc(C(C)(C)C)cc(C(C)C)c2CO)cc1	3.11
11) CC(=O)Nc1sc2c(c1C#N)CCCC2	4.11
12) CC(C)c1cc(C(C)(C)C)cc(-c2cccc(-c3ccccc3)c2)c1CO	2.32
13) COc1cccc(-c2cc(C(C)(C)C)cc(C(C)C)c2CO)c1	2.30
14) CCC(=O)Nc1sc2c(c1C#N)CCCC2	4.08
15) N#Cc1c(NC(=O)CC2Cc3ccccc3O2)sc2c1CCCC2 (stereo not given)	3.58
16) COc1ccc(CCC(=O)Nc2sc3c(c2C#N)CCCC3)cc1	2.61
17) COc1ccccc1-c1cc(C(C)(C)C)cc(C(C)C)c1CO	2.91
18) CC(C)c1cc(C(C)(C)C)cc(-c2ccc3ccccc3c2)c1CO	2.08
19) N#Cc1c(NC(=O)CCc2ccccc2)sc2c1CCCC2	2.46
20) Cc1ccc(-c2cc(C(C)(C)C)cc(C(C)C)c2CO)cc1C	1.91
21) Cc1ccccc1CCC(=O)Nc1sc2c(c1C#N)CCCC2	4.04
22) Cc1cccc(-c2cc(C(C)(C)C)cc(C(C)C)c2CO)c1	2.38
23) COc1cccc(CCC(=O)Nc2sc3c(c2C#N)CCCC3)c1	2.79
